Source: PubChem BioAssay AID624167

test system: Rat fibroblasts (CREF); experiment: Peg3 promoter luciferase inhibitors, potency, dose response, cell-based, HeLa, CREF/GAPDH counter-screen panel (AID 624167); conditions: CREF/GAPDH counter-screens, mean of runs
Activity calls are given as the source filed them.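 The calls were made as follows: active = mean IC50 for reducing PEG3 promoter reporter signal at or below a set limit, with IC50 above the limit in both counter screens; inactive = the rest, including counter screen hits.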
This section presents compounds with their documented IC50 values.
metric: IC50

| compound | metric | result |
| --- | --- | --- |
| COC(COC(N)=O)C1=C(N2CC2)C(=O)C(C)=C(N2CC2)C1=O (stereo not given) | IC50 | 4.51 µM |
| CCc1ccc(/C=C2\SC(=S)N(CCCC(=O)Nc3cc(C)on3)C2=O)cc1 | IC50 | > 100 µM (inactive) |
| O=C(N/N=C/c1cccs1)c1n[nH]c2c1CCCC2 | IC50 | 6 µM |
| CC(=O)Nc1ccc(NC(=O)c2nc(S(=O)(=O)Cc3cccc(C)c3)ncc2Cl)cc1 | IC50 | 6.67 µM |
| O=C(Nc1ccccc1)c1nc[nH]c1C(=O)NCCCCCCNC(=O)c1[nH]cnc1C(=O)Nc1ccccc1 | IC50 | > 100 µM (inactive) |

---

test system: Rat fibroblasts (CREF); assay: Peg3 promoter luciferase inhibitors, potency, dose response, cell-based, HeLa, CREF/GAPDH counter-screen panel (AID 624167); conditions: CREF/GAPDH counter-screens, mean of runs
Calls of active or inactive are those of the source.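 How the source made its calls: active means mean IC50 for reducing PEG3 promoter reporter signal at or below a set limit, with IC50 above the limit in both counter screens; inactive means the rest, including counter screen hits.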
Labels: yes (1) = active, no (0) = inactive

| molecule | group-label |
| --- | --- |
| C[C@@H]1C[C@@H]([C@H](O)CC2CC(=O)NC(=O)C2)C(=O)[C@@H](C)C1 | yes (1) |
| COc1cc(/C=N/O)ccc1OCc1ccc(C(=O)O)cc1 | yes (1) |
| O=C(Nc1cccc(C(=O)O)c1)Nc1ccc2c(c1)OCO2 | yes (1) |
| CC1CCN(c2ccc(-c3cccc(NC(=O)C(F)(F)F)c3)nn2)CC1 | yes (1) |
| O=C(Nc1cc(S(=O)(=O)N2CCOCC2)ccc1Cl)c1cc([N+](=O)[O-])ccc1Cl | yes (1) |
| Cc1cc(NC(c2ccc(Cl)cc2)c2ccc3cccnc3c2O)no1 (stereo not drawn) | no (0) |
| Cc1ccc(OCC(=O)c2cc(C)n(Cc3ccco3)c2C)c([N+](=O)[O-])n1 | no (0) |
| O=C1C=CC(=O)N1c1ccc(-c2nc3ccccc3o2)cc1 | yes (1) |
| COc1ccccc1Nc1nc(-c2sc(NC(=O)c3ccco3)nc2C)cs1 | no (0) |
| CC(=O)N1CCCC(c2cc(C(=O)Nc3ccccc3)no2)C1 (stereo not drawn) | yes (1) |
| CCCCCCN1C=C/C(=C\C=C(C#N)C#N)c2ccccc21 | no (0) |
| CN1CCC2(CC1)N=C(c1ccc(F)cc1)C(=S)N2C(=O)c1ccc(C(C)(C)C)cc1 | yes (1) |
| Cc1ccccc1CNC(=O)C1CCCN(c2nnc(C)c3c(C)n(-c4ccccc4)nc23)C1 (stereo not drawn) | yes (1) |
| Cc1cc(C(=O)COC(=O)c2ccccc2O)c(C)n1CC1CCCO1 (stereo not drawn) | yes (1) |
| O=c1c2ccccc2sc2ccc(C#CC3(O)CCCCC3)cc12 | yes (1) |
| CCCCC(=O)NC(c1ccccc1OC)c1ccc2cccnc2c1O (stereo not drawn) | no (0) |
| COc1ccc(/C=C2\SC(=S)N(CCCC(=O)NNC(=O)c3ccccc3O)C2=O)cc1 | no (0) |
| CCOc1ccc2nc(NC(=O)c3ccccn3)sc2c1 | yes (1) |
| CCC(=O)NC(c1cccs1)c1cc(Cl)c2cccnc2c1O (stereo not drawn) | yes (1) |
| Cc1cccc(/C=N/Nc2ccc3ccccc3n2)c1 | yes (1) |
| Cc1ccc(C)c(S(=O)(=O)N2CCN(c3ncnc4sccc34)CC2)c1 | no (0) |
| O=C(N/N=C\c1c(O)ccc2ccccc12)c1cncc(Br)c1 | yes (1) |
| COc1ccccc1CNCC(O)Cn1c2ccccc2c2ccccc21 (stereo not drawn) | yes (1) |
